- assay-text: Inhibitory concentration against tyramine oxidase of Arthrobacter spp.; Competitive inhibition
Where a name gives a salt, the structure may show the parent alone.
Mark each entry MET if its IC50 sits below 4 µM, and NOT MET for all others.

Enquiry: API: query returns whether the compound falls strictly under 4 µM in IC50. Query: NC1CC1(F)c1ccc(Cl)cc1 (trans isomer)
Return: MET

Enquiry: API: query returns whether the compound falls strictly under 4 µM in IC50. Query: N[C@H]1C[C@]1(F)c1ccccc1 (relative stereo)
Return: MET

Enquiry: API: query returns whether the compound falls strictly under 4 µM in IC50. Query: N[C@@H]1C[C@H]1c1ccccc1 (relative stereo) [TRANYLCYPROMINE HYDROCHLORIDE]
Return: NOT MET

Enquiry: API: query returns whether the compound falls strictly under 4 µM in IC50. Query: Cc1ccc([C@@]2(F)C[C@H]2N)cc1 (relative stereo)
Return: MET

Next:
Enquiry: API: query returns whether the compound falls strictly under 4 µM in IC50. Query: N[C@@H]1C[C@]1(F)c1ccc(F)cc1 (relative stereo)
Return: NOT MET
